Data provenance: paper PMC4813245

# Tgt: ETB receptor (ETBR) (Homo sapiens)
# Construct: gene EDNRB
# Sequence (P24530 27-442): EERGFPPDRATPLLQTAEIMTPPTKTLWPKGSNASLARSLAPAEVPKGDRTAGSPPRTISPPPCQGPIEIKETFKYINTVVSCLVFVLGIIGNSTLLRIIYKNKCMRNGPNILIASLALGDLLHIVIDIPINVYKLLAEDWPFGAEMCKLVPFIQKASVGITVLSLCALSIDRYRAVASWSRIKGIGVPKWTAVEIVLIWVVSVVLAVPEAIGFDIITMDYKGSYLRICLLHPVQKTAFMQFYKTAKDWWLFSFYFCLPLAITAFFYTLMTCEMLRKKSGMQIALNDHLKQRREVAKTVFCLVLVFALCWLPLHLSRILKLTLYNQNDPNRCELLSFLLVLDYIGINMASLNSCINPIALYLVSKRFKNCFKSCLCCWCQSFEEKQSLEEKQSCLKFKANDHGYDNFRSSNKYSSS
# Assay Overview: ET-1-induced intracellular calcium mobilization (Fluo-4) in HEK293/ETBR cells, antagonist mode
# Type: cell-based
Endpoint Label: IC50 (µM)
Give bare numbers, in µM.

### Prompt Can you look up the measured IC50 of COc1cccc2c1cc([N+](=O)[O-])c1c(C(=O)O)cc3c(c12)OCO3 for me?
### Response 7.4
